Species on record: Rattus norvegicus
Assay: Open TG-GATES - Regimen: Daily Repeat
Type: toxicity, organism-based, Sprague-Dawley
Set-up: regimen Daily Repeat, gender Male, age 6 weeks
Details: in vivo, po, 0 mg/kg, […], tissue Plasma, route gavage, dose level Control, time 7 day
Assign TP to each entry below.
Only the number, expressed in g/dL, is required.

Can you look up the measured TP of CCc1oc2ccccc2c1C(=O)c1cc(I)c(O)c(I)c1 for me?
5.7

Try the compound C[C@]12CCC(=O)C=C1CC[C@@H]1[C@@H]2CC[C@@]2(C)[C@H]1CC[C@]2(C)O
5.8

Field entry: CCC(C)(C)C(=O)O[C@H]1C[C@@H](C)C=C2C=C[C@H](C)[C@H](CC[C@@H]3C[C@@H](O)CC(=O)O3)[C@H]21
5.7

Next compound up: CCN1CCCC1CNC(=O)c1cc(S(N)(=O)=O)ccc1OC (centres undefined) [SULPIRIDE]
5.5

Lookup Oc1ncnc2[nH]ncc12
6.2

Query O=C(O)c1cccnc1 next
5.7

How about this compound: CC(C)(S)[C@@H](N)C(=O)O
5.8

Another compound to look at: CCSCC[C@H](N)C(=O)O
5.8

For Nc1nc(N)c2nc(-c3ccccc3)c(N)nc2n1 then?
5.8
